system: T1, human collagen type I (acid soluble, extracted from placenta, Sigma C7774) (human, UniProt P02452 162-1218; P08123 80-1119)
T1 construct: gelled and dried as a fibril film in the assay; also called dried human collagen; h-Collagen
T1 sequence (P02452 162-1218 limits assumed, chain 1 of 2): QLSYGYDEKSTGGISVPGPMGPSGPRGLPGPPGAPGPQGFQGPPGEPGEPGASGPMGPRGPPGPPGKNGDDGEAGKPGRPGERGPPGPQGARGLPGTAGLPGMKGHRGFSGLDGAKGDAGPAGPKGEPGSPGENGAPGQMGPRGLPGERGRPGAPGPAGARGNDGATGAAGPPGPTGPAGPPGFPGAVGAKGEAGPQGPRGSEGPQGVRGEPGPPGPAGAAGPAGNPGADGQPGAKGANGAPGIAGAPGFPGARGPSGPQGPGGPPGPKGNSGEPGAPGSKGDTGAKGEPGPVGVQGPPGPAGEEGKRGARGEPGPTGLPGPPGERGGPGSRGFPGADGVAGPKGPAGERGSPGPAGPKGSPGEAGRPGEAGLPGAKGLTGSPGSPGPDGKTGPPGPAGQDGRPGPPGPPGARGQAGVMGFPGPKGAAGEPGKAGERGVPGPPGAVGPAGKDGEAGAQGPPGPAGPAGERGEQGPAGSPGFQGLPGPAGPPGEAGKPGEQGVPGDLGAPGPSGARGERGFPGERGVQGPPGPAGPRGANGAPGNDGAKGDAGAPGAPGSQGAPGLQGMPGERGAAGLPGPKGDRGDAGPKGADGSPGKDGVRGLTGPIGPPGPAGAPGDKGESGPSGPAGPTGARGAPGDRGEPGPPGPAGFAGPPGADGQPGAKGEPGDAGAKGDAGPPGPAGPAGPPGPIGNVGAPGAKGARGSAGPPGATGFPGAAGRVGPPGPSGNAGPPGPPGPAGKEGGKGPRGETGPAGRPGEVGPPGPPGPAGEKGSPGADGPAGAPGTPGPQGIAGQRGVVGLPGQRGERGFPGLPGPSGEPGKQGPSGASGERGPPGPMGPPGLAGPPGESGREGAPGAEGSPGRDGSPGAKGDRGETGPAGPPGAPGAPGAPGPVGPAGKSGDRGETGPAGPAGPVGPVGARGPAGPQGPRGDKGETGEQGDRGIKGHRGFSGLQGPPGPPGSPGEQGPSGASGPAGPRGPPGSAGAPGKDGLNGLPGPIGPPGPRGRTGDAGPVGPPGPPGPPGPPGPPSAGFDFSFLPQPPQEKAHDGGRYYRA
T1 sequence (P08123 80-1119 limits assumed, chain 2 of 2): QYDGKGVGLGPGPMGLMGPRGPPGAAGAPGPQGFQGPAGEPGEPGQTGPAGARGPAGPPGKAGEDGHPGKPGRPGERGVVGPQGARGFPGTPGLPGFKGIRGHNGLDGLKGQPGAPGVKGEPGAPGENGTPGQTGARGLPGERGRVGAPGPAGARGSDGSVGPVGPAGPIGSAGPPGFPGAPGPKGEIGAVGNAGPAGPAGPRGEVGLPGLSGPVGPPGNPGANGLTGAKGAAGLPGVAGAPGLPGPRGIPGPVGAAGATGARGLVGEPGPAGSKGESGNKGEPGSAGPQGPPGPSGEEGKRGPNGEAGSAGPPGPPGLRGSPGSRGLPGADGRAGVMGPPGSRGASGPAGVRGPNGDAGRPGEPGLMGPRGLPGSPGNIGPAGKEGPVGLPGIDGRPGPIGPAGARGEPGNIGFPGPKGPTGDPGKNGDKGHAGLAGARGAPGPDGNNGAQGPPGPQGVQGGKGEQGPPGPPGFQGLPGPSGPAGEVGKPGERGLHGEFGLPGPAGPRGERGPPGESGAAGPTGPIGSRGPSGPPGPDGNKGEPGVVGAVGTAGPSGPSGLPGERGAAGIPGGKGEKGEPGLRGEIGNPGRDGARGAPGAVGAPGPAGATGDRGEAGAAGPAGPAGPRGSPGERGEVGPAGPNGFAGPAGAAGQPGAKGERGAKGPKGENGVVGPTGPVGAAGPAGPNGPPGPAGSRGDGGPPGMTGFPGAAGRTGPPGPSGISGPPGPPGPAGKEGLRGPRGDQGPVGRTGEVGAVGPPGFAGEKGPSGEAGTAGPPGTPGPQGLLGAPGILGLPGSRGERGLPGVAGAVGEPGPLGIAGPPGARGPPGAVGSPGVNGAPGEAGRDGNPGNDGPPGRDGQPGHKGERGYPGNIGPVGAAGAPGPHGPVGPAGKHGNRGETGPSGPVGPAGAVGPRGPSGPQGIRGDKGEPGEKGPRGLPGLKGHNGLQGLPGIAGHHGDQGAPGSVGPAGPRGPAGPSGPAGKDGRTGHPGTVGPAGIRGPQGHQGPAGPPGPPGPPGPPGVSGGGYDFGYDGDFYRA
assay_notes: dried collagen assay
Bridge positions count the residues as written; N and C are the ends. Ends that are not written are not given here.
value_kind: % bound (%)

| binder | unit_of_measure | result_value |
| --- | --- | --- |
| NWYCSQALDNWSCKLR (disulfide 4-13 (inferred)) [SEQ ID NO: 63] | % | 8 |
| GWDCQGTDNIWECVRK (disulfide 4-13 (inferred)) [SEQ ID NO: 30] | % | 16 |
| DWTCSGDEYRWHCNYE (disulfide 4-13 (inferred)) [SEQ ID NO: 19] | % | 70 |
| SWHCFGDNENWMCNLR (disulfide 4-13 (inferred)) [SEQ ID NO: 27] | % | 24 |
| HWTCDQAKGGAWSCSST (disulfide 4-14 (inferred)) [SEQ ID NO: 87] | % | 1 |
| SWNCHMIRNEWRCTGH (disulfide 4-13 (inferred)) [SEQ ID NO: 56] | % | 11 |
| WWTCHMTWSGQWDSCKWH (disulfide 4-15 (inferred)) [SEQ ID NO: 101] | % | 56 |
| WWACQKGQHDWEKCHWL (disulfide 4-14 (inferred)) [SEQ ID NO: 93] | % | 5 |

P: MWNCTMTKSGWRCFEK (disulfide 4-13 (inferred)) [SEQ ID NO: 54]
Q: EWQCTQYANQWNCKYN (disulfide 4-13 (inferred)) [SEQ ID NO: 45]
R: EWRCRGDSSSWLCDYT (disulfide 4-13 (inferred)) [SEQ ID NO: 40]
S: PMICHAPYVGKCNFL (disulfide 4-12 (inferred)) [SEQ ID NO: 12]
T: EWLCVGDSLKWYCKHS (disulfide 4-13 (inferred)) [SEQ ID NO: 24]
Query: Order each entry by recorded % bound, climbing from the minimum. Answer by naming the labels in the order asked.
Result: R, S, P, Q, T

a: HWSCYLGDNGWNCHDR (disulfide 4-13 (inferred)) [SEQ ID NO: 62]
b: AWSCWIVEGRWNCSDI (disulfide 4-13 (inferred)) [SEQ ID NO: 48]
Query: Which of the two gives a bigger number for % bound: a or b ? Refer to your chosen entry by its label in the reply.
Result: b
